Hello, the source for this data is PubChem BioAssay (NCI), in case you need it.

tested on: NCI-H322M lung; assay: NCI-60 one-dose screen, 48 h; conditions: 10 µM unless noted
The panel holds about 83,000 compounds, 20% with a hit somewhere; the sample as a whole holds those more often. The source made the active and inactive calls. Rule for the calls: active = growth percent below 10; inactive = the rest.
Outcomes: Y (active), N (inactive)

• CCn1c(Sc2nnc(NC(=O)CSC(=S)N3CCCCC3)s2)nc2c1c(=O)n(C)c(=O)n2C = N
• CCN(CC)CCCNC(=O)c1ccc(N)cc1O = N
• CC(=[N-])N1CCC[C@@H](Nc2c3ccccc3nc3ccccc23)C1.[Cl][Pt].[NH-]CCC[NH-] = N
• COc1ccc(/C(C)=C(\c2ccc(Cl)cc2)c2ccc(OCCCN(C)C)cc2)cc1F = N
• CCNCCNc1cc(-c2cccc(C(F)(F)F)c2)c(C#N)c2nc3ccccc3n12 = Y
• Cc1ccc(O)c(C(=O)c2ccccc2Cl)c1 = N
• CN1CCC(=C2c3ccccc3C=Cc3ccccc32)CC1 = N
• C=C1C(=O)O[C@H]2[C@H]1CC/C(Cn1cc(CNCCc3c[nH]c4ccccc34)nn1)=C\CC[C@@]1(C)O[C@@H]21 = N
• CC[C@@H](C[C@H](CCO)c1ccccc1)c1cc2ccccc2o1 = N
• COc1cc(NC(=O)c2cccc(-c3cc(=O)c4c(O)c(OC)c(OC)cc4o3)c2)cc(OC)c1OC = N
• C[C@@H](C[C@H](CCOCc1cccnc1)c1ccccc1)c1cc2ccccc2o1 = N
• CCNCCNc1cc(-c2ccc(C(=O)OC)cc2)c(C#N)c2nc3ccccc3n12 = N
• O=C(Oc1ccc([N+](=O)[O-])cc1)c1ccc(CBr)cc1 = N
• COc1ccc(OC)c(/C=C2\COc3ccc(O)cc3C2=O)c1 = N
• O=C(CC12CC3CC(CC(C3)C1)C2)NCCOCCOCCNC(=O)c1cc2c(o1)C(=O)c1ccccc1C2=O = Y
• COc1ccc(/C=C(\C#N)n2nnc3ccccc32)cc1 = N
• Nc1ccc2c(S(=O)(=O)O)ccc(S(=O)(=O)O)c2c1 = N
• CN(C)CCn1cc(-c2ccc3c(Nc4ccc(CC(=O)Nc5cccc(F)c5)cc4)ncnc3c2)cn1 = Y
• O=C(O)C1C[C@](O)(c2ccc(F)cc2)[C@@H](c2ccc(F)cc2)O1 (some centres not stated) = N
• O=[N+]([O-])c1cccc(/C=C/c2ccccn2)c1 = N
• CCN(CC)CC(=O)Nc1cccc(C(=O)OC(C)C)c1 = N
• CNC(=O)NCC1OC(n2cnc3c(NC(=O)Nc4ccccc4)ncnc32)C2OC(C)(C)OC12 (configuration not stated) = N
